- measured target: T1, human platelet α2β1 integrin (immobilized on microtiter plates) (human, UniProt P17301 30-1181; P05556 21-798)
- T1 construct: plates custom-coated with human platelet α2β1 by GTI Inc; also called immobilized α2β1 integrin; α2β1-coated plates
- T1 sequence (P17301 30-1181 E534K limits assumed, chain 1 of 2): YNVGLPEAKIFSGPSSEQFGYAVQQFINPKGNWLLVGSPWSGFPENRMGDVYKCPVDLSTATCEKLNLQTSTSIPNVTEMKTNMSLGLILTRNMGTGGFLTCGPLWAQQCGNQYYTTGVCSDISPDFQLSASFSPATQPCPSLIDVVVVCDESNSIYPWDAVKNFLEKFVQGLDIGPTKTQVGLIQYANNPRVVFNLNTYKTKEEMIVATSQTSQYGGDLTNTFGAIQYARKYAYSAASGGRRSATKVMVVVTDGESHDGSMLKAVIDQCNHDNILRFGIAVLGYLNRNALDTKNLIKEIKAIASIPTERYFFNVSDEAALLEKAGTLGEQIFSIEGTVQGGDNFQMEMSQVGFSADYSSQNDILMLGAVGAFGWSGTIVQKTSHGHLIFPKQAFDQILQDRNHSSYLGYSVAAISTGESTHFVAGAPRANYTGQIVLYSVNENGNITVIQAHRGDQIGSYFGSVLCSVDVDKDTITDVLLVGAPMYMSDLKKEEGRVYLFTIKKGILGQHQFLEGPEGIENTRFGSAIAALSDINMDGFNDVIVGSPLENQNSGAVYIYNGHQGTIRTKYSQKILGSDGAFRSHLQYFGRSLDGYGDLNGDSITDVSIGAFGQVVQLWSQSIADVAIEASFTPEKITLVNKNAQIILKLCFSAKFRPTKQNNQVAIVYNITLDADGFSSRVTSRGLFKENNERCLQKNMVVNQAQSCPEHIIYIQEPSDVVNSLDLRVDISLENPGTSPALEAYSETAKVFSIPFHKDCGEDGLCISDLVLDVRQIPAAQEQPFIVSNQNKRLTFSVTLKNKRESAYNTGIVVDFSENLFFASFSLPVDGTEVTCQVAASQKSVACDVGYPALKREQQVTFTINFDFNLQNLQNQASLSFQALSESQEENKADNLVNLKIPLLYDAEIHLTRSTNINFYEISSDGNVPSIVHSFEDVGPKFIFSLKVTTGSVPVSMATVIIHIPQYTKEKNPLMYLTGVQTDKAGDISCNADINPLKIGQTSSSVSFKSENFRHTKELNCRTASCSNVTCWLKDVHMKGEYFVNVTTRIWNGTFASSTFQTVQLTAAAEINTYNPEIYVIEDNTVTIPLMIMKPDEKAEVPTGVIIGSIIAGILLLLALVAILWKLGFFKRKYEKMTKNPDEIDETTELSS
- T1 sequence (P05556 21-798 limits assumed, chain 2 of 2): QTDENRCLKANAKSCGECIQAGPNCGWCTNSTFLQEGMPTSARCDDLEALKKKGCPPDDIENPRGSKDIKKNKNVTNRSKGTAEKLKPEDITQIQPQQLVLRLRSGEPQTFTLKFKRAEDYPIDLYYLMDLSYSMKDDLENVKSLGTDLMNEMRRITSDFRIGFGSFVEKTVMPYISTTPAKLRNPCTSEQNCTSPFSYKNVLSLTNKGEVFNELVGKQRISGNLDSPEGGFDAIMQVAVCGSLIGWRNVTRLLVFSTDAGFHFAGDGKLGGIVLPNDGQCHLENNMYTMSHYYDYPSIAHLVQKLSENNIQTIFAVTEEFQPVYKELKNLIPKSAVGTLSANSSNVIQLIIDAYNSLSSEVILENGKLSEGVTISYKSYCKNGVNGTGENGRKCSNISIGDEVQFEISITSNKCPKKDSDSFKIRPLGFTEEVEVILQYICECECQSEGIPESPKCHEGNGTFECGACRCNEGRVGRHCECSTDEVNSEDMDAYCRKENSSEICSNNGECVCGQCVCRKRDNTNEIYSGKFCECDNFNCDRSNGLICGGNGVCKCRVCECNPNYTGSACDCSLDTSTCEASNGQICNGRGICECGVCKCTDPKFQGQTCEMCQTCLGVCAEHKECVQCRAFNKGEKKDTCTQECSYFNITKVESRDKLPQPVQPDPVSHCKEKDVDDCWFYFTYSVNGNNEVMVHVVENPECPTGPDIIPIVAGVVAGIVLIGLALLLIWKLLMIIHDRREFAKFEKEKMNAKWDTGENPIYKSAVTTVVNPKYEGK
- test: competition with Eu-TMC-2206 on human platelet α2β1-coated plate
assay metric: pKi
Give only the number. pKi is defined as minus log10 of concentration in molar units.

Solved cases (2 shown):
Problem: Fill in the blank: the reported pKi of humanized TMC-2206 variant hVH14.0/hVL12.0 (antibody, human IgG1, V domains shown, human IgG1/κ constant regions; also called VH 14.0 VL 12.0) VH: QVQLQESGPGLVKPSETLSLTCTVSGFSLTNYGIHWIRQPPGKGLEWLGVIWARGFTNYNSALMSRVTISKDNSKNQVSLKLSSVTAADTAVYYCARANDGVYYAMDYWGQGTLVTVSS VL: DFVMTQSPAFLSVTPGEKVTITCSANSSVNYIHWYQQKPDQAPKKLIYDTSKLASGVPSRFSGSGSGTDFTFTISSLEAEDAATYYCQQWTTNPLTFGQGTKVEIK is ____.
Result: 9.42

Problem: Fill in the blank: the reported pKi of TMC-2206 (antibody, mouse IgG1, V domains shown, murine IgG1/κ secreted by hybridoma BHA2.1; labelled with Eu-N1-ITC where used as tracer; also called BHA2.1) VH: QVQLKESGPGLVAPSQSLSITCTVSGFSLTNYGIHWVRQPPGKGLEWLGVIWARGFTNYNSALMSRLIITKDNSQSQVFLKMNSLQPDDSATYFCARANDGVYYAMDYWGQGTSVTVSS VL: QFVLTQSPAFLSASPGEKVTMTCSANSSVNYIHWYQQKSGTSPKKWIYDTSKLASGVPVRFSGSGSGTSYSLTISSMETEDAATYYCQQWTTNPLTFGAGTRVELK is ____.
Result: 9.66

Pending binder:
Problem: Fill in the blank: the reported pKi of humanized TMC-2206 variant hVH1.0/hVL1.0Q (antibody, human IgG1, V domains shown, human IgG1/κ constant regions; also called VH 1.0 VL 1.0Q) VH: QVQLQESGPGLVKPSETLSLTCTVSGFSLTNYGIHWVRQPPGKGLEWLGVIWARGFTNYNSALMSRLTISKDNSKNQVSLKLSSVTAADTAVYFCARANDGVYYAMDYWGQGTLVTVSS VL: QFVLTQSPAFLSVTPGEKVTITCSAQSSVNYIHWYQQKPDQAPKKWIYDTSKLASGVPSRFSGSGSGTDYTFTISSLEAEDAATYYCQQWTTNPLTFGQGTKVEIK is ____.
Result: 9.46
